target: T1, PSMA Fab; test: phage binding ELISA; biotinylated PSMA Fab on neutravidin plate, clonal phage supernatant, anti-M13 HRP detection; column read as anti-PSMA Fab pre-incubated with PSMA antigen as competitor
T1 construct: also called Anti-PSMA Fab; 006 PSMA Fab
test-readout: phage binding ELISA signal
// no unit, no text: just the number

Entry VHKWCTPAWMCEVH [Phage-2597] has what phage binding ELISA signal? 0.0662

Please give the result for HFNWCTPSWMCDVL [Phage-2592] too. 0.118

Moving on to the next binder: VLNWCTPPWMCLGI [Phage-2589] 0.107

# iterate: LVKWCVPDWMCQET [Phage-2598] 0.0671

Reference for the values: patent US20260242478A1
